Cited source for all entries: the array DNA melting data of Ke et al. (doi:10.1101/2024.01.08.574731)

- Experiment summary: folding enthalpy; higher = less favourable; fluorescence melt of hairpins on a sequencing array, two-state fit
- Test conditions: sodium 0.088 M
Measurement name: folding enthalpy (kcal/mol)
Report as a plain number; the unit kcal/mol is understood.

Ask | Please report folding enthalpy for the following sequence: GATCACTTAGGTGATC ((((((....))))))
Reply | -41.6

Ask | Please report folding enthalpy for the following sequence: GCGCGGCGAAAGCTGAGC ((.(.((....)).).))
Reply | -31.1

Ask | Please report folding enthalpy for the following sequence: GATCATATAGATGATC ((((((....))))))
Reply | -36.2

Ask | Please report folding enthalpy for the following sequence: GAAGTAGAAATACTTC ((((((....))))))
Reply | -26.5

Ask | Please report folding enthalpy for the following sequence: GGGCACGAAAGTGTACCC ((((((....)))..)))
Reply | -18.4

Ask | Please report folding enthalpy for the following sequence: CATATGAAAATATG (((((....)))))
Reply | -11.8

###

Please go through the items and note down their folding enthalpy.
- Experiment summary: folding enthalpy; higher = less favourable; fluorescence melt of hairpins on a sequencing array, two-state fit
- Test conditions: sodium 0.088 M
A complete answer gives the number and then names the unit.

Ask | Please report folding enthalpy for the following sequence: GCCCGACGAAAGTCCGGC (((.(((....))).)))
Reply | -30.7 kcal/mol

Ask | Please report folding enthalpy for the following sequence: GCGACGCTTCGC ((((....))))
Reply | -14.7 kcal/mol

Ask | Please report folding enthalpy for the following sequence: GAAATGCGAAAGCAATTC (((.(((....))).)))
Reply | -20 kcal/mol

Ask | Please report folding enthalpy for the following sequence: GTTCCGGGAAACTGGGAC ((.((.(....).)).))
Reply | -28.2 kcal/mol

Ask | Please report folding enthalpy for the following sequence: GCCCTTGGAAACAAGAGC ((.((((....)))).))
Reply | -21.4 kcal/mol

Ask | Please report folding enthalpy for the following sequence: CCTCTGAAAAGAGG (((((....)))))
Reply | -20.4 kcal/mol

Ask | Please report folding enthalpy for the following sequence: GGGGTGCCGAAAGGCCCC (((..(((....))))))
Reply | -14.6 kcal/mol

Ask | Please report folding enthalpy for the following sequence: GAACCCGGAAACGGGTCC (.(((((....))))).)
Reply | -11.2 kcal/mol

Ask | Please report folding enthalpy for the following sequence: GGGCCTTCGAAAGAACCC (((..(((....))))))
Reply | -7.96 kcal/mol

Ask | Please report folding enthalpy for the following sequence: GTCCACGGAAACGTGGGC (.(((((....))))).)
Reply | -28.2 kcal/mol

Ask | Please report folding enthalpy for the following sequence: GCGTTCGGAAACAAACGC (((((.(....).)))))
Reply | -34.6 kcal/mol

Ask | Please report folding enthalpy for the following sequence: GTGTTCGGAAACGGATAC ((.(.((....)).).))
Reply | -25.8 kcal/mol

Ask | Please report folding enthalpy for the following sequence: GCAATGCGAAAGCTCTGC (((..((....))..)))
Reply | -16.1 kcal/mol

Ask | Please report folding enthalpy for the following sequence: GGGATGGAAACATCCC ((((((....))))))
Reply | -41.4 kcal/mol

Ask | Please report folding enthalpy for the following sequence: GTACACGAAAGTGTTAC ((((((....))).)))
Reply | -12.9 kcal/mol

Ask | Please report folding enthalpy for the following sequence: GTAGTTGGAAACAACTGC (.(((((....))))).)
Reply | -18 kcal/mol

Ask | Please report folding enthalpy for the following sequence: GGTTACGAAAGTACTACC ((((((....)))..)))
Reply | -23.2 kcal/mol

Ask | Please report folding enthalpy for the following sequence: GATCTTGTTAAAGATC ((((((....))))))
Reply | -37.3 kcal/mol

Ask | Please report folding enthalpy for the following sequence: GTATGCGAAAGCACATAC ((((((....)))..)))
Reply | -11.2 kcal/mol

Ask | Please report folding enthalpy for the following sequence: GCGAGACGTCGC ((((....))))
Reply | -8.79 kcal/mol

Ask | Please report folding enthalpy for the following sequence: GAGGAGGGAAACCTCCTC (((((((....)))))))
Reply | -33.4 kcal/mol

Ask | Please report folding enthalpy for the following sequence: GCCTTGCGAAAGCGGGGC (((..((....))..)))
Reply | -33.2 kcal/mol

Ask | Please report folding enthalpy for the following sequence: GATCAAATATTGATC ((((((...))))))
Reply | -32.8 kcal/mol

Ask | Please report folding enthalpy for the following sequence: GTCAGCCGAAAGGCGGAC (((.(((....))).)))
Reply | -33.1 kcal/mol

Ask | Please report folding enthalpy for the following sequence: GCGGATGCGAAAGCACGC (((..(((....))))))
Reply | -15.8 kcal/mol
